For each of the compounds below, state its IC50.
# tested target: Alpha-amylase 1A (Homo sapiens, UniProt P0DUB6)
# Sequence (P0DUB6 whole entry): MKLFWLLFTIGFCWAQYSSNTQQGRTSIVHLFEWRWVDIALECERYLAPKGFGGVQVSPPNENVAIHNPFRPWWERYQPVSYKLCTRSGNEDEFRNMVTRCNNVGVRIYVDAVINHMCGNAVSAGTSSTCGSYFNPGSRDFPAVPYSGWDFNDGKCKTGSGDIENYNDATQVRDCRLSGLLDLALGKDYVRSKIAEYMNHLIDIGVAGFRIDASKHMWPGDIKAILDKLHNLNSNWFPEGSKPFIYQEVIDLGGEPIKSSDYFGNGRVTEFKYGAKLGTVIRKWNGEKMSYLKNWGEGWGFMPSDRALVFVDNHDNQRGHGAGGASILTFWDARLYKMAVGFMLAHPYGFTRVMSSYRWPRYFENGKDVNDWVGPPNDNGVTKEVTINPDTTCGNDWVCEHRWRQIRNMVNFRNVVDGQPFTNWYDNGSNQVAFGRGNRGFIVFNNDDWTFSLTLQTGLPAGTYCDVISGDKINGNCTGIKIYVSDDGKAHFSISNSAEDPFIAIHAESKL
The response must be a number in µM with no trailing unit.

Param readout = IC50; param system = Alpha-amylase 1A (Homo sapiens, UniProt P0DUB6); param query = O=c1c(O)c(-c2ccc(O)c(O)c2)oc2cc(O)ccc12 ; response: value
19.6

Another compound to look at: O=c1c(O)c(-c2ccc(O)c(O)c2)oc2cc(O)cc(O)c12
21.4

// same read-out, input: O=c1c(O)c(-c2cc(O)c(O)c(O)c2)oc2cc(O)cc(O)c12
30.2

O=c1cc(-c2ccc(O)cc2)oc2cc(O)c(O)c(O)c12 , same question.
9.64

Now the same for O=c1cc(-c2ccc(O)c(O)c2)oc2cc(O)cc(O)c12
18.4

Same again, this time with O=c1c(O)c(-c2ccc(O)c(O)c2)oc2cc(O)c(O)c(O)c12
10.2
